one-nucleolus phenotype percent effect values for the sequences below.
Tested on: MCF10A
Assay: one-nucleolus phenotype percent effect (relative to siNT 0% and siNOL11 100%); higher = more cells with one nucleolus (ribosome biogenesis inhibition)
Conditions: 20 nM; 72 h
Hi! Could you send only the number? It should be in %, unit omitted.

Here is how some sequences turned out for one-nucleolus phenotype percent effect.
Exam item: Recorded one-nucleolus phenotype percent effect of GGUAGAUUUUCCUUCUAUGGU [hsa-miR-376a-2-5p] , please.
Marked response: -26.7

Exam item: Dear colleague, I am looking for the recorded one-nucleolus phenotype percent effect of the following sequence: UCGGGCGCAAGAGCACUGCAGU [hsa-miR-6499-5p]
Marked response: 0.719

Exam item: So what's the measured one-nucleolus phenotype percent effect for this one? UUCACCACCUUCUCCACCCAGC [hsa-miR-197-3p]
Marked response: 10.8

Exam item: Name the recorded one-nucleolus phenotype percent effect for AGGCCUCUGUGACGUCACGGUGU [hsa-miR-4757-5p] .
Marked response: -11.7

More entries:
Exam item: Could you share which one-nucleolus phenotype percent effect value was measured for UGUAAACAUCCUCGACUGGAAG [hsa-miR-30a-5p] ?
Marked response: -3.76
